IC50: recorded values
molecular target: Fatty acid synthase (Homo sapiens); assay: inhibition of human FAS-TE enzyme activity – biochemical, kinetic fluorescence intensity, dose response (AID 624326); format: functional;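 also: rate of fluorescence rise from hydrolysis of a fluorogenic O-methyl fluorescein ester substrate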
Sequence (P49327 whole entry): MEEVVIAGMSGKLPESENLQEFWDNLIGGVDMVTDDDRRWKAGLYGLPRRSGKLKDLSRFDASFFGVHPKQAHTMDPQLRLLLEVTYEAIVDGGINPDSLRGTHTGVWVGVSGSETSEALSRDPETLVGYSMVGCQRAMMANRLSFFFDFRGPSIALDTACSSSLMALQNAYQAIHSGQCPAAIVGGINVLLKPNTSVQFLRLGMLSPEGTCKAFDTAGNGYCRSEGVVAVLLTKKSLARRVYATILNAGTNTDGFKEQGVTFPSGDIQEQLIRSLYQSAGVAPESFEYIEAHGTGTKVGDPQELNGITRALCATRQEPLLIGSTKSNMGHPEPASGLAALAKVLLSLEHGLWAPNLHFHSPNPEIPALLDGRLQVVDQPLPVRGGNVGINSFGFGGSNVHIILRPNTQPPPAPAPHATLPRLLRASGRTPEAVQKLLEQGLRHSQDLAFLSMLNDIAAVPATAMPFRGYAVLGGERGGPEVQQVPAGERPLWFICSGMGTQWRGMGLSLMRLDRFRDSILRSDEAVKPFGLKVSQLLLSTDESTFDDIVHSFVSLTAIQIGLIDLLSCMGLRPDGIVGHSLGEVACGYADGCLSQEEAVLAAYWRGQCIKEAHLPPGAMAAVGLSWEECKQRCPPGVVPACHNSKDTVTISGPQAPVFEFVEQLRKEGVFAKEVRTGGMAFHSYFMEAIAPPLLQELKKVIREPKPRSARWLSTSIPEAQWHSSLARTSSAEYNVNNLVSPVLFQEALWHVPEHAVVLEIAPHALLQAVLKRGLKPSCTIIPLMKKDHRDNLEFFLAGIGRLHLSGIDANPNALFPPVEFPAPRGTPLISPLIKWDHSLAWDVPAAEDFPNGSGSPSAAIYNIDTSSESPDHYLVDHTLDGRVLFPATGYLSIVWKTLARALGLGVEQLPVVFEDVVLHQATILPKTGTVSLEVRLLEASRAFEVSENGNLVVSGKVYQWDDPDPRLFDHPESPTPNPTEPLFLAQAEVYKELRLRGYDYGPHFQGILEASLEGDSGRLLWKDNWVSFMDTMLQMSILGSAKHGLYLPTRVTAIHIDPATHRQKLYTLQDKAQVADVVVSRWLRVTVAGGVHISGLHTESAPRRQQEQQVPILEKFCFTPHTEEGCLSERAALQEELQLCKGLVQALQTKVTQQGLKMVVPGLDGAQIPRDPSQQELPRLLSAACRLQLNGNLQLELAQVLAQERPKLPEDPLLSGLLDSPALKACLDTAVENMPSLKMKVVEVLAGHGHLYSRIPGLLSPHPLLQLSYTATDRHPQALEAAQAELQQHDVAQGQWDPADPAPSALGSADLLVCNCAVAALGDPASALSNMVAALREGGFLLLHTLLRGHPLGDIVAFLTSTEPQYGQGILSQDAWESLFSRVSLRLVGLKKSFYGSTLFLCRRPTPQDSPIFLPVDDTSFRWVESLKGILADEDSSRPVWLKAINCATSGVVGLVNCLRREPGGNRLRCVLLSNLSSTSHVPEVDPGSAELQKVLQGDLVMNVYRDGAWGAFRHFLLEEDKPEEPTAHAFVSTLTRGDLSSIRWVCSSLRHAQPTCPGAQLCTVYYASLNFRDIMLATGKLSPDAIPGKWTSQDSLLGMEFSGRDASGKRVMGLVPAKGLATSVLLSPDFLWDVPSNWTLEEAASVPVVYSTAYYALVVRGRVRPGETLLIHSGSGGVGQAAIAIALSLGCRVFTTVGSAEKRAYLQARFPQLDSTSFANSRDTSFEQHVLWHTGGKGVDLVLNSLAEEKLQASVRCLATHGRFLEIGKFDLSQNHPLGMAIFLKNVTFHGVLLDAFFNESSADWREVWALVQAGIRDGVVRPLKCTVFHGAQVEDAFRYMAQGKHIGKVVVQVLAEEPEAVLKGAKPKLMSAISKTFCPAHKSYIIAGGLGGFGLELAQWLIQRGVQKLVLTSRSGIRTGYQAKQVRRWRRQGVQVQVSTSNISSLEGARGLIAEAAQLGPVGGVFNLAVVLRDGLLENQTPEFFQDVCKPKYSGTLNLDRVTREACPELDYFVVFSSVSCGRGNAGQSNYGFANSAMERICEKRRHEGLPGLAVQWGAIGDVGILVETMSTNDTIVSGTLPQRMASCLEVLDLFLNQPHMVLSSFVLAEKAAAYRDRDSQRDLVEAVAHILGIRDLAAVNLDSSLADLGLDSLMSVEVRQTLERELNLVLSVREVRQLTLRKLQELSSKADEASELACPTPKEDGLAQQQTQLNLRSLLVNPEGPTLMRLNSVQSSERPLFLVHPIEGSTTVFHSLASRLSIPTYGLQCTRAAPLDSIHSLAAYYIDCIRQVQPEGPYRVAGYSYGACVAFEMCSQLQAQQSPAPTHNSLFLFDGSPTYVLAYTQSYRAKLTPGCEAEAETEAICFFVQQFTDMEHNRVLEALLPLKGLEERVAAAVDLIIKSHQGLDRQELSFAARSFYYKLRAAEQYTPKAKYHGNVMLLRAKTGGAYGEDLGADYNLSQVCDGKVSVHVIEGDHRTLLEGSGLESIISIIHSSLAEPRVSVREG
Activity calls are given as the source filed them. Rule as the data show it: active = IC50 of 20 µM or less and inactive = more.

Would you please look over these solved cases?
1) CCCC(=O)NC1=C(Cl)C(=O)c2ccccc2C1=O
12.7 µM (active)
2) CCOC(=O)[C@]12Cc3c(cc(OC)c(OC)c3OC)[C@H]1N(C1CCCCC1)C(=O)c1ccccc12
7.77 µM (active)
3) CNC(=S)N(Cc1ccc(OC)cc1)C1CC(=O)N(c2ccc(Cl)cc2)C1=O (configuration not stated)
9.36 µM (active)
4) O=C(O)CC(NC(=O)CCC1CCCCC1)c1cc([N+](=O)[O-])ccc1Cl (configuration not stated)
8.7 µM (active)
5) O=C(NCc1ccccc1)/C(=C\c1cccc([N+](=O)[O-])c1)NC(=O)c1ccco1
4.06 µM (active)

In: Recorded IC50 for `N#CCCSc1nc(N2CCOCC2)c2c(c1C#N)CCCC2` , please?
Out: 5.49 µM (active)

In: Recorded IC50 for `COc1ccccc1-c1cc(SC)c(C#N)c(=O)o1` , please?
Out: 10.9 µM (active)
